Where do these numbers come from? They come from patent US20040048834A1.

- Test system: MEL28
- assayDetails: Cytotoxicity of spisulosine analogs, MEL28 (after Berjeron et al)
- Assay type: cell-based
- experimentalSetup: MEL28; methodology after Berjeron et al; NA=not active; read-out: Cytotoxicity IC50 MEL28
IC50 listing for selected compounds.
Express the result in nM but write the number alone.

compound	testedTarget	IC50 / nM
CCCCCCCCCCCCCCCC(O)C(N)CC (stereo not shown) [drawing 79]	MEL28	334

Asked: If you can, please state the reported IC50 value of CCCCCCCCCCCCCCCC(=O)[C@@H](N)CC [drawing 106] .
Given back: 299

Asked: Return reported IC50; argument: CCCCCCCCCCCCCCCC(=NO)C(C)N (stereo not shown)
Given back: 335

Asked: Field request: IC50 | item: CCCCCCCCCCCCCCC[C@@H](O)[C@H](C)N [drawing 46]
Given back: 27.7

Asked: Requested field: IC50. Item: "CCCCCCCCCCCCCCCC(=O)[C@@H](C)N"
Given back: 313

Asked: Requested field: IC50. Item: CCCCCCCCCCCCCCCCC(=O)[C@H](C)N [drawing 104]
Given back: 299

Asked: Fill in: IC50 of "CCCCCCCCCCCCCCC[C@@H](O)[C@H](C)NC" is ___
Given back: 334

====

- System: DU-145
- assayDetails: Cytotoxicity MTS, solid tumors, Prostate DU-145
- Type: cell-based
- experimentalSetup: 4-Parameter Curve Fit, NA = not active
readoutType: pIC50
The scale used: pIC50 is minus the common logarithm of the concentration in molar units.

compound	testedTarget	pIC50
CCCCCCCCCCCCCC[C@@H](O)[C@H](C)N [drawing 115]	DU-145	6.70
CCCCCCCCCCCCCCCC[C@@H](O)[C@H](C)N [drawing 113]	DU-145	7.13
CCCCCCCCCCCCCCCCC[C@@H](O)[C@H](C)N [drawing 114]	DU-145	5.01
CCCCCCCCCCCCCCC[C@@H](O)[C@@H](N)CF [drawing 122]	DU-145	7.31

Please examine the following record next.
Asked: Request body: readout pIC50, system DU-145, query CCCCCCCCCCCCCCC[C@@H](O)[C@@H](N)CC [drawing 116] . Return the value.
Given back: 7.12

====

- System: P388
- assayDetails: Cytotoxicity of spisulosine analogs, P388 (after Berjeron et al)
- Assay type: cell-based
- experimentalSetup: Mus musculus, P388, P388; methodology after Berjeron et al; NA=not active; read-out: Cytotoxicity IC50 P388
We begin with a simple list: items and their reported log10 of IC50.
Log scale reminder: IC50 in nM, then log10 taken.

molecule	testedTarget	log10 of IC50
CCCCCCCCCCCCCCC[C@H](Cl)[C@H](C)N	P388	2.52
CCCCCCCCCCCCCCCCC[C@@H](O)[C@H](C)N [drawing 38, (2S,3R)-2-Amino-3-eicosanol]	P388	1.50
CCCCCCCCCCCCCCC[C@H](O)[C@@H](C)N	P388	2.54

We next turn to a different molecule, shown below.
Asked: For the molecule shown here, CCCCCCCCCCCCCCCC[C@@H](O)[C@H](C)N [drawing 37, (2S,3R)-2-Amino-3-nonadecanol] , give the reported log10 of IC50.
Given back: 1.52

====

- Test system: NCI-H187
- assayDetails: Cytotoxicity MTS, solid tumors, SCL NCI-H187
- Format: cell-based
- experimentalSetup: 4-Parameter Curve Fit, NA = not active
readoutType: IC50 (µM)
Use µM as the unit, but write only the number.

Answered cases to consult:
molecule	testedTarget	IC50, µM
CCCCCCCCCCCCCCC[C@@H](O)[C@@H](N)CC [drawing 116]	NCI-H187	7.29
CCCCCCCCCCCCCCCC(=O)[C@H](C)N [drawing 118]	NCI-H187	3.55
CCCCCCCCCCCCCCCCC[C@@H](O)[C@H](C)N [drawing 114]	NCI-H187	7.17

// switching to the query molecule
Asked: Give the measured IC50 of CCCCCCCCCCCCCCCC[C@@H](O)[C@H](C)N [drawing 113] .
Given back: 0.163

====

- Tested on: MX-1
- assayDetails: Cytotoxicity MTS, solid tumors, Breast MX-1
- Type: cell-based
- experimentalSetup: 4-Parameter Curve Fit, NA = not active
# Lookup of reported IC50 keyed by entry
Write the value in nM as a bare number.

See these solved cases before continuing.
molecule	IC50 (nM)
CCCCCCCCCCCCCCCC(=O)[C@H](C)N [drawing 118]	2840
CCCCCCCCCCCCCCC[C@@H](O)[C@H](C)N [drawing 112]	1950

Asked: // returns reported IC50 for input CCCCCCCCCCCCCCCC(=O)[C@@H](N)CC [drawing 121]
Given back: 1720

Asked: Quick one: IC50 for CCCCCCCCCCCCCCC[C@@H](O)[C@@H](N)CF [drawing 122] ?
Given back: 4290

Asked: Look at this molecule and give its reported IC50. CCCCCCCCCCCCCCCCC(=O)[C@H](C)N [drawing 119]
Given back: 14900

====

- Test system: H9
- assayDetails: Cytotoxicity MTS, leukemias/lymphomas, H9
- Assay type: cell-based
- experimentalSetup: 4-Parameter Curve Fit, NA = not active, read-out: Cytotoxicity IC50 Lymphoma (T cell) H9
pIC50 for assorted molecules
# pIC50: negative log10 of molar concentration; output just the value

Solved entries:
molecule	pIC50
CCCCCCCCCCCCCCCC(O)C(C)N (stereo not drawn)	5.81
CCCCCCCCCCCCCCCCCC(=O)[C@H](C)N [drawing 131]	5.59

Continue with the molecule presented below.
Asked: Requested field: pIC50. Item: CCCCCCCCCCCCCCCC(=O)C(N)CC (stereo not drawn)
Given back: 5.22

====

The reader will find reported IC50 values listed item by item below.
- System: DU145
- assayDetails: Cytotoxicity of spisulosine analogs, DU145 (after Berjeron et al)
- Type: cell-based
- experimentalSetup: DU145; methodology after Berjeron et al; NA=not active; read-out: Cytotoxicity IC50 DU145
The response must be a number in µM with no trailing unit.

Below: 10 molecules and their reported IC50.
molecule	observedValue
CCCCCCCCCCCCCCCC(=O)[C@H](C)N [drawing 102]	0.0313
CCCCCCCCCCCCCCCC(O)C(N)CC (stereo not drawn) [drawing 79]	0.334
CCCCCCCCCCCCCCCC(=O)[C@@H](C)N	0.156
CCCCCCCCCCCCCCCCC(=O)[C@H](C)N [drawing 104]	0.15
CCCCCCCCCCCCCCC[C@@H](O)[C@H](C)NC	0.334
CCCCCCCCCCCCCCC[C@@H](O)[C@H](C)N(C)C	0.319
CCCCCCCCCCCCCCCCCC(=O)[C@H](C)N [drawing 105]	0.144
CCCCCCCCCCCCCCCC(=O)[C@@H](N)CC [drawing 106]	0.0299
CCCCCCCCCCCCCC[C@@H](O)[C@H](C)N [drawing 101]	0.163
CCCCCCCCCCCCCCCC(=NO)C(C)N (stereo not drawn)	0.335

Asked: Field request: IC50 | item: CCCCCCCCCCCCCCC[C@@H](O)[C@@H](N)CF [drawing 111]
Given back: 0.329

Asked: Look up IC50 for this molecule: CCCCCCCCCCCCCCC[C@@H](O)[C@H](C)N [drawing 36, spisulosine-285, reference compound]
Given back: 0.035

====

Below, each entry is listed with its recorded pIC50.
- Tested on: A549
- assayDetails: Cytotoxicity MTS, solid tumors, NSCL A549
- Type: cell-based
- experimentalSetup: 4-Parameter Curve Fit, NA = not active
Bear in mind: pIC50 is minus log10 of a mol/L concentration; give just that figure.

molecule	pIC50
CCCCCCCCCCCCCCC[C@@H](O)[C@@H](N)CC [drawing 116]	4.99
CCCCCCCCCCCCCCCCC[C@@H](O)[C@H](C)N [drawing 114]	5.01

Consider the additional molecule presented here.
Asked: Please look up its pIC50: CCCCCCCCCCCCCC[C@@H](O)[C@H](C)N [drawing 115]
Given back: 5.00

====

- System: A549
- assayDetails: Cytotoxicity of spisulosine analogs, A549 (after Berjeron et al)
- Assay type: cell-based
- experimentalSetup: A549; methodology after Berjeron et al; NA=not active; read-out: Cytotoxicity IC50 A549
readoutType: pIC50
pIC50 is defined as minus the log10 of a concentration measured in mol/L.

Reference set, count: 4
molecule	pIC50
CCCCCCCCCCCCCCCC[C@@H](O)[C@@H](N)CC [drawing 60, (3S,4R)-3-Amino-4-eicosanol]	6.50
CCCCCCCCCCCCCCC[C@@H](OC(=O)C(F)(F)F)[C@H](C)N	7.69
CCCCCCCCCCCCCCC[C@@H](O)[C@H](C)NC	6.48
CCCCCCCCCCCCCCC[C@@H](O)[C@H](C)NS(C)(=O)=O	7.56

Asked: Consider the molecule shown here: "CCCCCCCCCCCCCCC[C@@H](O)[C@H](C)N(C)C" What is its recorded pIC50?
Given back: 6.50

Asked: For the molecule shown here, CCCCCCCCCCCCCCCCC(=O)[C@H](C)N [drawing 104] , give the reported pIC50.
Given back: 6.82

Asked: Would you kindly share the measured pIC50 for "CCCCCCCCCCCCCCCC[C@@H](O)[C@H](C)NS(C)(=O)=O" ?
Given back: 6.58
